Each entry below carries its reported self-cleavage.
B1: CPEB3 Ribozyme (parent)
chain: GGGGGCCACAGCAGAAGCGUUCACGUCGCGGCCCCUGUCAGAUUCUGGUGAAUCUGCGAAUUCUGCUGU

# Variants of: B1
# measurement-protocol: self-cleavage, relative activity (ratio to wild type); higher = more cleavage; co-transcriptional
Please give only the number in your answer, with no unit.

# mutation-notation, self-cleavage
measured = [
    ("G47U U62A", 0.983),
]

Proceed to the following item.
Input line: For the variant C34U U67A , what self-cleavage is on record?
Output line: 1.01
